# Tested on: oxidation of lipids
# testDetails: Conjugated diene lag phase determination on pooled serum of treated rats
# Assay type: in vivo, Male Sprague-Dawley rats
# testContext: not normalized, mean of 2 determinations of pooled rat serum (N = 5), diet 0.3%, 4 days
observedProperty: CONJ. DIENE

Example results:
1) CC(C)=CCCC(C)CCOc1ccc(O)c(C(C)(C)C)c1 (stereo not drawn) : 400 min
2) CC(C)=CCCC(C)CCSc1cc(C(C)(C)C)c(O)c(C(C)(C)C)c1 (stereo not drawn) : 363 min
3) CC(C)=CCC[C@H](C)CCOc1cc(C(C)(C)C)c(O)cc1C(C)(C)C : 201 min
4) CC(C)CCCC(C)CCOc1cc(C(C)(C)C)c(O)c(C(C)(C)C)c1 (stereo not drawn) : 229 min
5) CC(C)CCCC(C)CCOc1ccc(O)c(C(C)(C)C)c1 (stereo not drawn) : 708 min

Would you kindly look at the next entry?
Exam item: I'm curious: which CONJ. DIENE was measured for CC(C)=CCC[C@H](C)CCOc1ccc(O)c(C(C)(C)C)c1 (stereo in doubt) tested on oxidation of lipids?
Marked response: 375 min

----------
# testDetails: HPLC quantitation of compound and metabolite concentration in rat serum and liver
# Format: in vivo
# testContext: male, Sprague-Dawley, oral, 0.3 % in chow; parent compound concentration in rat liver; diet 0.3%, 4 days; mean N = 5; read-out: Liver Parent
# Procedure: A typical experiment consists of 4-6 groups of rats (N = 5 per group) with I group being a control which receives no MDL compound and the other groups being treated with 0.3% MDL compound. Some of the compounds are either repeated at 0.3% or evaluated again at the lower dose of 0.1%. […] Deaths are recorded as mortality. […]
Would you kindly list concentration at 5 day for each of these molecules?
Answers are plain numbers, in ng/g.

Dear reader, for each entry below, please note its concentration at 5 day.
1. CC(C)=CCC[C@@H](C)CCOc1cc(C(C)(C)C)c(O)c(C(C)(C)C)c1 [MDL 104,535]
2. CC(CCCC(C)(C)O)CCSc1cc(C(C)(C)C)c(O)c(C(C)(C)C)c1 (stereo not drawn) [MDL 104,487]
3. CC(C)=CCC[C@H](C)CCOc1ccc(O)c(C(C)(C)C)c1 (stereo in doubt) [MDL 103,649]

Marked response:
[60300, 3800, 0]

----------
Would you kindly list ALP for each of these compounds?
# Test system: Male Sprague-Dawley Rats
# testDetails: Serum clinical chemistries in rats fed compound as dietary admixture
# Type: in vivo
# testContext: % of control; alkaline phosphatase in rat serum; diet 0.3%, 4 days; N = 5
Answers are plain numbers, in %.

1) CC(C)CCCC(C)CCOc1ccc(O)c(C(C)(C)C)c1 (stereo not drawn) [MDL 104,191] : 81
2) CC(C)=CCC[C@H](C)CCOc1cc(C(C)(C)C)c(O)c(C(C)(C)C)c1 [MDL 103,294] : 124
3) CC(C)=CCC[C@@H](C)CCOc1cc(C(C)(C)C)c(O)c(C(C)(C)C)c1 [MDL 104,535] : 151
4) CC(C)=CCCC(C)CCOc1ccc(O)c(C(C)(C)C)c1 (stereo not drawn) [MDL 105,411] : 76
5) CC(C)CCCC(C)CCOc1cc(C(C)(C)C)c(O)c(C(C)(C)C)c1 (stereo not drawn) [MDL 104,102] : 101

Would you kindly look at the next entry?
Exam item: What value of measured ALP is listed for CC(C)=CCC[C@H](C)CCOc1ccc(O)c(C(C)(C)C)c1 (stereo in doubt) [MDL 103,649] ?
Marked response: 74
